Molecular target: 5-hydroxytryptamine receptor 1A (Rattus norvegicus, UniProt P19327)
Sequence (P19327 whole entry): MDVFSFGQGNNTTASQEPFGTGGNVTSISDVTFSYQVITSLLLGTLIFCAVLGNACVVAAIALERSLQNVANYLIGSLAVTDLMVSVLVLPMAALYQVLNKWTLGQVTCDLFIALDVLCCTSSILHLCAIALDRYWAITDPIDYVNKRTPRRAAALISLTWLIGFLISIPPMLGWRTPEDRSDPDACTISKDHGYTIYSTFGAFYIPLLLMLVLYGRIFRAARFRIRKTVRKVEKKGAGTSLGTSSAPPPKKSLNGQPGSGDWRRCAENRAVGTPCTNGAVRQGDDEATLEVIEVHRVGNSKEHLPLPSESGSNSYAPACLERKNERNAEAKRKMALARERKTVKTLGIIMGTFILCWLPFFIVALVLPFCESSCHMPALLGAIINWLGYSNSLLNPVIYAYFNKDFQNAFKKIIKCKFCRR
pKi: −log10 of the molar value.
quantity_name: pKi

[[record]]
smi = "FC(F)(F)c1cccc(N2CCN(CCCOc3ccc4[nH]c(=S)[nH]c4c3)CC2)c1"
target = "5-hydroxytryptamine receptor 1A (Rattus norvegicus, UniProt P19327)"
value_reported = 7.00

[[record]]
smi = "COc1ccccc1N1CCN(CCCOc2ccc3[nH]c(=S)[nH]c3c2)CC1"
target = "5-hydroxytryptamine receptor 1A (Rattus norvegicus, UniProt P19327)"
value_reported = 6.75

[[record]]
smi = "c1ccc(N2CCN(CCCOc3ccc4[nH]cnc4c3)CC2)cc1"
target = "5-hydroxytryptamine receptor 1A (Rattus norvegicus, UniProt P19327)"
value_reported = 6.19

[[record]]
smi = "S=c1[nH]c2ccc(OCCCN3CCN(c4ccccc4)CC3)cc2[nH]1"
target = "5-hydroxytryptamine receptor 1A (Rattus norvegicus, UniProt P19327)"
value_reported = 6.03

[[record]]
smi = "FC(F)(F)c1cccc(N2CCN(CCCOc3ccc4[nH]cnc4c3)CC2)c1"
target = "5-hydroxytryptamine receptor 1A (Rattus norvegicus, UniProt P19327)"
value_reported = 6.41


---

target: 5-hydroxytryptamine receptor 2A (Rattus norvegicus, UniProt P14842)
Sequence (P14842 whole entry): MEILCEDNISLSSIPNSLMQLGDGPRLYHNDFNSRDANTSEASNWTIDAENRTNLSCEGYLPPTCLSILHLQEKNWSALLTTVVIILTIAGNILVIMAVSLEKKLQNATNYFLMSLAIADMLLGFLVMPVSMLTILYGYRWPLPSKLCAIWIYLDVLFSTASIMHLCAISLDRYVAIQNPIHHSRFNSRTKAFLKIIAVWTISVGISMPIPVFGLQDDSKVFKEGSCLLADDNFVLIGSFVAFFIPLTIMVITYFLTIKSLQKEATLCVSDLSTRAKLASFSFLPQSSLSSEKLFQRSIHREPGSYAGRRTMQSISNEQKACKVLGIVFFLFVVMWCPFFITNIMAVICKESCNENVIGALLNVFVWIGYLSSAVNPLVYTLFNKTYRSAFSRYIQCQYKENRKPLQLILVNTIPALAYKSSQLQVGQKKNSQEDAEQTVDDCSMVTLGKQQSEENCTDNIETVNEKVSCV
quantity_name: Ki (µM)

[[record]]
smi = "S=c1[nH]c2ccc(OCCCN3CCN(c4ccccc4)CC3)cc2[nH]1"
quantity_name = "Ki"
unit_tag = "µM"
value_reported = 0.00204

[[record]]
smi = "COc1ccccc1N1CCN(CCCOc2ccc3[nH]c(=S)[nH]c3c2)CC1"
quantity_name = "Ki"
unit_tag = "µM"
value_reported = 0.0191


---

assay: Binding affinity at adrenergic alpha 1 receptor in rat striatal membranes; format: cell membranes, Striatum, Membrane
quantity_name: Log Ki

[[record]]
smi = "COc1ccccc1N1CCN(CCCOc2ccc3[nH]c(=S)[nH]c3c2)CC1"
value_reported = -8.71

[[record]]
smi = "CN1CCN(C2=Nc3cc(Cl)ccc3Nc3ccccc32)CC1"
value_reported = -7.65

[[record]]
smi = "S=c1[nH]c2ccc(OCCCN3CCN(c4ccccc4)CC3)cc2[nH]1"
value_reported = -7.53

[[record]]
smi = "c1ccc(N2CCN(CCCOc3ccc4[nH]cnc4c3)CC2)cc1"
value_reported = -7.58

[[record]]
smi = "FC(F)(F)c1cccc(N2CCN(CCCOc3ccc4[nH]c(=S)[nH]c4c3)CC2)c1"
value_reported = -6.31

[[record]]
smi = "COc1ccccc1N1CCN(CCCOc2ccc3[nH]cnc3c2)CC1"
value_reported = -8.23

[[record]]
smi = "FC(F)(F)c1cccc(N2CCN(CCCOc3ccc4[nH]cnc4c3)CC2)c1"
value_reported = -6.92

